Origin of the recorded values: patent US6914045B2

System: Enterococcus sp.
Test: in vitro antibacterial evaluation, MIC by broth dilution
Format: cell-based
Settings: broth dilution, 18 hours at 35° C.; strain GC 4554
quantity.name: MIC Enterococcus faecalis (GC 4554) (µg/mL)

INSERT INTO assay_data (compound, tested_system, quantity_name, unit_annotation, experimental_value) VALUES
  ('CC(c1ccccc1)C1NC(=O)CNC(=O)C(CO)NC(=O)C(C(O)C2CNC(=N)N2C2OC(CO)C(O)C(O)C2O)NC(=O)C(C(O)C2CNC(=N)N2)NC(=O)C(Cc2ccc(OC3OC(CO)C(OC4OC5COC(CC6CCCCC6)OC5C(O)C4O)C(O)C3O)cc2)NC1=O (centres unmarked) [Example 122]', 'Enterococcus sp.', 'MIC Enterococcus faecalis (GC 4554)', 'µg/mL', 2),
  ('CCCC(C)C1OCC2OC(OC3C(CO)OC(Oc4ccc(CC5NC(=O)C(C(C)c6ccccc6)NC(=O)CNC(=O)C(CO)NC(=O)C(C(O)C6CNC(=N)N6C6OC(CO)C(O)C(O)C6O)NC(=O)C(C(O)C6CNC(=N)N6)NC5=O)cc4)C(O)C3O)C(O)C(O)C2O1 (centres unmarked) [Example 111]', 'Enterococcus sp.', 'MIC Enterococcus faecalis (GC 4554)', 'µg/mL', 2),
  ('CCCC(CCC)C(=O)OCC1OC(OC2C(CO)OC(Oc3ccc(CC4NC(=O)C(C(C)c5ccccc5)NC(=O)CNC(=O)C(CO)NC(=O)C(C(O)C5CNC(=N)N5C5OC(CO)C(O)C(O)C5O)NC(=O)C(C(O)C5CNC(=N)N5)NC4=O)cc3)C(O)C2O)C(O)C(O)C1O (centres unmarked) [Example 99c]', 'Enterococcus sp.', 'MIC Enterococcus faecalis (GC 4554)', 'µg/mL', 4),
  ('CC(c1ccccc1)C1NC(=O)CNC(=O)C(CO)NC(=O)C(C(O)C2CNC(=N)N2C2OC(CO)C(O)C(O)C2O)NC(=O)C(C(O)C2CNC(=N)N2)NC(=O)C(Cc2ccc(OC3OC(CO)C(OC4OC(COCC=Cc5ccccc5)C(O)C(O)C4O)C(O)C3O)cc2)NC1=O (centres unmarked) [Example 242]', 'Enterococcus sp.', 'MIC Enterococcus faecalis (GC 4554)', 'µg/mL', 16),
  ('CC(c1ccccc1)C1NC(=O)CNC(=O)C(CO)NC(=O)C(C(O)C2CNC(=N)N2C2OC(CO)C(O)C(O)C2O)NC(=O)C(C(O)C2CNC(=N)N2)NC(=O)C(Cc2ccc(OC3OC(COC(=O)OCc4ccccc4)C(OC4OC(CO)C(O)C(O)C4O)C(O)C3O)cc2)NC1=O (centres unmarked) [Example 101]', 'Enterococcus sp.', 'MIC Enterococcus faecalis (GC 4554)', 'µg/mL', 64),
  ('CC(c1ccccc1)C1NC(=O)CNC(=O)C(CO)NC(=O)C(C(O)C2CNC(=N)N2C2OC(CO)C(O)C(O)C2O)NC(=O)C(C(O)C2CNC(=N)N2)NC(=O)C(Cc2ccc(OC3OC(CO)C(OC4OC(COCc5cccs5)C(O)C(O)C4O)C(O)C3O)cc2)NC1=O (centres unmarked) [Example 244]', 'Enterococcus sp.', 'MIC Enterococcus faecalis (GC 4554)', 'µg/mL', 64);
